Biological target: Prostaglandin D2 receptor (Mus musculus)
Test: Antagonist activity at mouse prostanoid DP receptor expressed in CHO cells assessed as inhibition of PGD2-induced intracellular cAMP production
Hi there, I'd appreciate the recorded pIC50 for every entry that follows.
Numbers only, as −log10 of the molar value.

Example entries begin here.
{"SMILES STR": "Cc1ccc(NC(=O)c2ccc(OC[C@@H]3CN(C)c4ccccc4O3)cc2Cl)cc1CC(=O)O", "REPORTED MEASUREMENT": 8.41}
{"SMILES STR": "Cc1ccc(NC(=O)c2ccc(OC[C@@H]3CN(C)c4ccccc4O3)cc2C)cc1CC(=O)O", "REPORTED MEASUREMENT": 8.21}
{"SMILES STR": "Cc1cc(OC[C@@H]2CN(C)c3ccccc3O2)ccc1C(=O)Nc1ccc(F)c(CC(=O)O)c1", "REPORTED MEASUREMENT": 8.92}
{"SMILES STR": "CN1C[C@@H](COc2ccc(C(=O)Nc3ccc(F)c(CC(=O)O)c3)c(Cl)c2)Oc2ccccc21", "REPORTED MEASUREMENT": 7.30}

IN: What does the data say about its pIC50? Entry: CN1C[C@@H](COc2ccc(C(=O)Nc3cc(CC(=O)O)ccc3F)c(Cl)c2)Oc2ccccc21
OUT: 8.13

---

Each entry below carries its measured pKi, system: Prostaglandin F2-alpha receptor (Mus musculus, UniProt P43117).
Sequence (P43117 whole entry): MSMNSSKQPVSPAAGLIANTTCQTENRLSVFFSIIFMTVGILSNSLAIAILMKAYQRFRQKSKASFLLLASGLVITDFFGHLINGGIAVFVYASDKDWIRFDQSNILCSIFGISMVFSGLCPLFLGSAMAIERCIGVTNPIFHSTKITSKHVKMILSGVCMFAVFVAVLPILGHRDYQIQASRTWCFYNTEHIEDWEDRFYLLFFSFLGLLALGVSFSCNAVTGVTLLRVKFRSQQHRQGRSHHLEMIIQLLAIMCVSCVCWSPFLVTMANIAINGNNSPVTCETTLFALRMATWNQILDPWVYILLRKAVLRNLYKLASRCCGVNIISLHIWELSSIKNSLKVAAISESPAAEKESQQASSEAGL
pKi: −log10 of the molar value.

Example entries begin here.
{"SMILES STR": "Cc1cc(CC(=O)O)cc(NC(=O)c2ccc(OC[C@@H]3CN(C)c4ccccc4O3)cc2C)c1", "pKi": "< 5.00"}
{"SMILES STR": "CN1C[C@@H](COc2ccc(C(=O)Nc3cc(CC(=O)O)ccc3F)c(Cl)c2)Oc2ccccc21", "pKi": "< 5.00"}

Could you now look at the following compound, please?
IN: What does the data say about its pKi? Entry: CN1C[C@@H](COc2ccc(C(=O)Nc3cc(CC(=O)O)ccc3Cl)c(Cl)c2)Oc2ccccc21
OUT: < 5.00

---

Hi there, I'd appreciate the recorded pKi for every entry that follows.
Biological target: Prostaglandin D2 receptor (Mus musculus, UniProt P70263)
Experiment: Displacement of [3H]PGD2 from mouse prostanoid DP receptor expressed in CHO cells after 20 mins by liquid scintillation counting
Answers are plain numbers, as −log10 of the molar value.

Example entries begin here.
{"SMILES STR": "CN1C[C@@H](COc2ccc(C(=O)Nc3cccc(CC(=O)O)c3)cc2)Oc2ccccc21", "REPORTED MEASUREMENT": 6.51}
{"SMILES STR": "Cc1cc(OC[C@@H]2CN(C)c3ccccc3O2)ccc1C(=O)Nc1ccc(F)c(CC(=O)O)c1", "REPORTED MEASUREMENT": 7.82}
{"SMILES STR": "CN1C[C@@H](COc2ccc(C(=O)N(C)c3cccc(CC(=O)O)c3)cc2)Oc2ccccc21", "REPORTED MEASUREMENT": 6.12}
{"SMILES STR": "Cc1ccc(NC(=O)c2ccc(OC[C@@H]3CN(C)c4ccccc4O3)cc2Cl)cc1CC(=O)O", "REPORTED MEASUREMENT": 7.77}

Could you now look at the following molecule, please?
IN: What does the data say about its pKi? Entry: CN1C[C@@H](COc2ccc(C(=O)Nc3cc(CC(=O)O)ccc3Cl)c(Cl)c2)Oc2ccccc21
OUT: 7.89

---

Hi there, I'd appreciate the recorded pKi for every entry that follows.
Molecular target: Prostaglandin E2 receptor EP4 subtype (Mus musculus, UniProt P32240)
Sequence (P32240 whole entry): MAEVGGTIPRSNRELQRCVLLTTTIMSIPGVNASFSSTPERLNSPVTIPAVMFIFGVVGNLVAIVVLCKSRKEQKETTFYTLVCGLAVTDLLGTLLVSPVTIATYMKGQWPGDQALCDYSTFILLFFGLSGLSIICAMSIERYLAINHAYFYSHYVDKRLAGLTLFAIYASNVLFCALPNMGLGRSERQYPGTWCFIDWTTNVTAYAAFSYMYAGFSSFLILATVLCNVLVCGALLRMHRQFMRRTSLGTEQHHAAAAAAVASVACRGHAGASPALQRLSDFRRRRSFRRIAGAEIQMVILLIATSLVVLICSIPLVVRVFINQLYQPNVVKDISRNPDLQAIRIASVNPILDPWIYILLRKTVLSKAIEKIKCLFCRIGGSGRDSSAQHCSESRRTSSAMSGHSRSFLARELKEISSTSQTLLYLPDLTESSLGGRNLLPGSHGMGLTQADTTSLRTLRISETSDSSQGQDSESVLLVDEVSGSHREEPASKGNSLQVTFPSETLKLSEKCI
pKi: −log10 of the molar value.

{"SMILES STR": "CN1C[C@@H](COc2ccc(C(=O)Nc3cc(CC(=O)O)ccc3Cl)c(Cl)c2)Oc2ccccc21", "pKi": "< 5.00"}
{"SMILES STR": "Cc1ccc(CC(=O)O)cc1NC(=O)c1ccc(OC[C@@H]2CN(C)c3ccccc3O2)cc1C", "pKi": "< 5.00"}

Could you now look at the following compound, please?
IN: What does the data say about its pKi? Entry: Cc1cc(CC(=O)O)cc(NC(=O)c2ccc(OC[C@@H]3CN(C)c4ccccc4O3)cc2C)c1
OUT: 6.17

---

Target: Thromboxane A2 receptor (Homo sapiens)
Sequence (P21731 whole entry): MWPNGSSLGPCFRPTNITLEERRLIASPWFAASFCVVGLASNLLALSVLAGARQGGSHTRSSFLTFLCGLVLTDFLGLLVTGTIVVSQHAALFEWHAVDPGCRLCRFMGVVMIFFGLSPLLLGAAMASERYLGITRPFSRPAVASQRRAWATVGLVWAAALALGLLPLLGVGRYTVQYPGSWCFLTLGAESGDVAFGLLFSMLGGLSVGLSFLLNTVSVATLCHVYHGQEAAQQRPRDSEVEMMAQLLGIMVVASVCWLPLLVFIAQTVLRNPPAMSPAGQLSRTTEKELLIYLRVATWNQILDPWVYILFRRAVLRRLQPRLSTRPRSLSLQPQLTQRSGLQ
Assay: Displacement of [3H]-SQ29548 from human prostanoid TP receptor expressed in CHO cells after 30 mins by liquid scintillation counting
QUANTITY NAME: Ki

IN: What does the data say about its Ki? Entry: CN1C[C@@H](COc2ccc(C(=O)Nc3cc(CC(=O)O)ccc3Cl)c(Cl)c2)Oc2ccccc21
OUT: > 10 µM

---

Hi there, I'd appreciate the recorded clearance for every entry that follows.
Test: Total clearance in rat at 1 mg/kg, iv
Type: ADME, organism-based
Design: dose 1 mg/kg, route intravenous
Details: in vivo

Each molecule below has a recorded value; state its clearance.
1. Cc1cc2c(CC(=O)O)cccc2n1C(=O)c1ccc(OC[C@@H]2CN(C)c3ccccc3O2)cc1
2. Cc1ccc(CC(=O)O)cc1NC(=O)c1ccc(OC[C@@H]2CN(C)c3ccccc3O2)cc1C
3. CN1C[C@@H](COc2ccc(C(=O)Nc3cccc(CC(=O)O)c3)cc2)Oc2ccccc21

OUT:
1. 2.4 mL/min/kg
2. 3.3 mL/min/kg
3. 25 mL/min/kg

---

pKi: −log10 of the molar value.
Each entry below carries its measured pKi, system: Prostaglandin E2 receptor EP3 subtype (Mus musculus, UniProt P30557).
Sequence (P30557 whole entry): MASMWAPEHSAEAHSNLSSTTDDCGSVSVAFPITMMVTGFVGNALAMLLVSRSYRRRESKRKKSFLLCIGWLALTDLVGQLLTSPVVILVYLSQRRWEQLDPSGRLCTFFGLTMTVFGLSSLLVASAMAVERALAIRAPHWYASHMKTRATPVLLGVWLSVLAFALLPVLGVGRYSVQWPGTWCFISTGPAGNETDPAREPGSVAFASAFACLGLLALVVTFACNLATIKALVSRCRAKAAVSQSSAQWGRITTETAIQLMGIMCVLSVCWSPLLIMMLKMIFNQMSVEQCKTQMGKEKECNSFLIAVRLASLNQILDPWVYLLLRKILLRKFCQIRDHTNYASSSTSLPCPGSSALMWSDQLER

{"SMILES STR": "Cc1ccc(CC(=O)O)cc1NC(=O)c1ccc(OC[C@@H]2CN(C)c3ccccc3O2)cc1C", "QUANTITY NAME": "pKi", "REPORTED MEASUREMENT": "< 5.00"}
{"SMILES STR": "CN1C[C@@H](COc2ccc(C(=O)Nc3cc(CC(=O)O)ccc3F)c(Cl)c2)Oc2ccccc21", "QUANTITY NAME": "pKi", "REPORTED MEASUREMENT": "< 5.00"}

Could you now look at the following compound, please?
IN: What does the data say about its pKi? Entry: Cc1cc(OC[C@@H]2CN(C)c3ccccc3O2)ccc1C(=O)Nc1cccc(CC(=O)O)c1
OUT: < 5.00

---

Biological target: Prostaglandin D2 receptor (Mus musculus)
Test: Displacement of [3H]PGD2 from mouse prostanoid DP receptor expressed in CHO cells after 20 mins by liquid scintillation counting
Hi there, I'd appreciate the recorded Ki for every entry that follows.
Give bare numbers, in nM.

Example entries begin here.
{"SMILES STR": "CN1C[C@@H](COc2ccc(NC(=O)c3cccc(CC(=O)O)c3)cc2)Oc2ccccc21", "Ki / nM": 5300}
{"SMILES STR": "Cc1cc(OC[C@@H]2CN(C)c3ccccc3O2)ccc1C(=O)Nc1cccc(CC(=O)O)c1", "Ki / nM": 18}
{"SMILES STR": "Cc1cc(CC(=O)O)cc(NC(=O)c2ccc(OC[C@@H]3CN(C)c4ccccc4O3)cc2Cl)c1", "Ki / nM": 12}
{"SMILES STR": "Cc1ccc(CC(=O)O)cc1NC(=O)c1ccc(OC[C@@H]2CN(C)c3ccccc3O2)cc1C", "Ki / nM": 31}
{"SMILES STR": "Cc1cc(OC[C@@H]2CN(C)c3ccccc3O2)ccc1C(=O)Nc1cccc(CC(=O)O)c1C", "Ki / nM": 59}

Each compound below has a recorded value; state its Ki.
1. Cc1cc(OC[C@@H]2CN(C)c3ccccc3O2)ccc1C(=O)Nc1cc(F)cc(CC(=O)O)c1
2. CN1C[C@@H](COc2ccc(C(=O)Nc3ccc(F)c(CC(=O)O)c3)c(Cl)c2)Oc2ccccc21
3. Cc1cc(OC[C@@H]2CN(C)c3ccccc3O2)ccc1C(=O)Nc1cc(CC(=O)O)ccc1F

OUT:
1. 7.4
2. 25
3. 19

Each compound below has a recorded value; state its Ki.
1. COc1ccc(NC(=O)c2ccc(OC[C@@H]3CN(C)c4ccccc4O3)cc2C)cc1CC(=O)O
2. CN1C[C@@H](COc2ccc(C(=O)Nc3cc(CC(=O)O)ccc3F)c(Cl)c2)Oc2ccccc21
3. COc1ccc(NC(=O)c2ccc(OC[C@@H]3CN(C)c4ccccc4O3)cc2Cl)cc1CC(=O)O
4. Cc1cc(CC(=O)O)cc(NC(=O)c2ccc(OC[C@@H]3CN(C)c4ccccc4O3)cc2C)c1
5. Cc1cc(OC[C@@H]2CN(C)c3ccccc3O2)ccc1C(=O)Nc1cc(CC(=O)O)ccc1Cl
6. Cc1ccc(CC(=O)O)cc1NC(=O)c1ccc(OC[C@@H]2CN(C)c3ccccc3O2)cc1Cl

OUT:
1: 24; 2: 17; 3: 36; 4: 8.4; 5: 7.7; 6: 26

---

Target: Prostaglandin D2 receptor (Mus musculus, UniProt P70263)
Sequence (P70263 whole entry): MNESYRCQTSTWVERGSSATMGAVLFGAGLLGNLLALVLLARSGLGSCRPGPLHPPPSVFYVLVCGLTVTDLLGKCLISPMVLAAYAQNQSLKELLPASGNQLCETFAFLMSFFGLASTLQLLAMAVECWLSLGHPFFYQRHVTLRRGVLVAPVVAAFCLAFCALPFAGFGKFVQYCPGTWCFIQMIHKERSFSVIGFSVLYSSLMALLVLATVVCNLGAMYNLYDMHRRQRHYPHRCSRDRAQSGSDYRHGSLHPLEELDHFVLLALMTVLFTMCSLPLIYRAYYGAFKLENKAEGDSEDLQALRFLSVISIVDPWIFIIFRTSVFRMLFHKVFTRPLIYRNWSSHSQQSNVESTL
Test: Antagonist activity at mouse prostanoid DP receptor expressed in CHO cells assessed as inhibition of PGD2-induced intracellular cAMP production
Hi there, I'd appreciate the recorded IC50 for every entry that follows.
Numbers only, in nM.

Example entries begin here.
{"SMILES STR": "Cc1cc(CC(=O)O)cc(NC(=O)c2ccc(OC[C@@H]3CN(C)c4ccccc4O3)cc2C)c1", "UNIT NAME": "nM", "IC50": 3.4}
{"SMILES STR": "Cc1cc(OC[C@@H]2CN(C)c3ccccc3O2)ccc1C(=O)Nc1cc(F)cc(CC(=O)O)c1", "UNIT NAME": "nM", "IC50": 5.6}

Each compound below has a recorded value; state its IC50.
1. Cc1cc(OC[C@@H]2CN(C)c3ccccc3O2)ccc1C(=O)Nc1cccc(CC(=O)O)c1C
2. COc1ccc(NC(=O)c2ccc(OC[C@@H]3CN(C)c4ccccc4O3)cc2Cl)cc1CC(=O)O

OUT:
[28, 41]

Taken from ChEMBL document CHEMBL1817571.
